meta.source: the supplement of paper PMC12783771

B1: library; a variant is named by its letters at X, in order (parent)
chain: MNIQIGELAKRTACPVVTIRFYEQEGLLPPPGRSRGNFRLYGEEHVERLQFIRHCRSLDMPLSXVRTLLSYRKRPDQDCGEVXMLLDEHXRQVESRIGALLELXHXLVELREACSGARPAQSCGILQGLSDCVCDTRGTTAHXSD

Variants of: B1
RUN_DESCRIPTION: sfGFP reporter fluorescence (15 h) (µM FITC); higher = higher leak
CONDITION: library round: Round 3b; ligand: none
MEASURE_NAME: sfGFP reporter fluorescence

MUTATION_NOTATION | MEAS_VALUE
KFATHT | 0.0512
KIAVAR | 0.0586
KFAVHT | 0.0459
KNITAR | 0.0701
KFAVAT | 0.0465
KIATET | 0.0659
KIAKHR | 0.072
DIATER | 0.0429
DFITAT | 0.0436
KIITAT | 0.0466
KIIKET | 0.0423
KIATER | 0.0637
KIAKAR | 0.0603
KIIVHT | 0.053
DFAVHR | 0.0438
DIAKET | 0.0419
DFAKET | 0.037
KFAKAR | 0.0579
KNAVAP | 0.0482
DIATAP | 0.0413
KIITEP | 0.0456
KFAKER | 0.0536
